Cited source for all entries: paper PMC11945236

METHOD DESCRIPTION: MTT cytotoxicity assay, HFF-1 cells
Format: cell-based
MEASUREMENT CONDITIONS: human

| COMPOUND STRUCTURE | UNIT OF MEASUREMENT | CC50 at 48 h |
| --- | --- | --- |
| CC(C)=CC[C@@H](O)C1=CC(=O)c2c(O)ccc(O)c2C1=O | nM | 1310 |

###

STUDY TARGET: SARS-CoV-2 M^pro (Severe acute respiratory syndrome coronavirus 2, UniProt P0DTD1)
METHOD DESCRIPTION: biochemical
MEASUREMENT CONDITIONS: read-out: Enzymatic Inhibition Rate (%), primary screening, 10 μM, incubation for 5 min
# maps each entry to its inhibition at 10 µM
RECORDED ENDPOINT: inhibition at 10 µM (%)

| COMPOUND | RECORDED ENDPOINT | EXPERIMENTAL RESULT |
| --- | --- | --- |
| COc1cc(C(CC=C(C)C)OCCC(C)C)c(OC)c2c1C(=O)C=CC2=O (stereo not shown) | inhibition at 10 µM | 10.6 |
| COc1cc(C(CC=C(C)C)OCCCCC(C)O)c(OC)c2c1/C(=N/O)C=C/C2=N\O (stereo not shown) | inhibition at 10 µM | 10.7 |
| COc1cc(C(CC=C(C)C)OCCC(C)C)c(OC)c2c1/C(=N/OC(=O)c1ccccc1)C=C/C2=N\OC(=O)c1ccccc1 (stereo not shown) | inhibition at 10 µM | -6.9 |
| COc1cc(C(CC=C(C)C)OC(=O)C=Cc2ccccc2)c(OC)c2c1/C(=N/O)C=C/C2=N\O (stereo not shown) | inhibition at 10 µM | 28 |
| CC(C)=CC[C@@H](O)C1=CC(=O)c2c(O)ccc(O)c2C1=O | inhibition at 10 µM | 51.4 |
| COc1cc(C(CC=C(C)C)OCCCCCCCCO)c(OC)c2c1/C(=N/O)C=C/C2=N\O (stereo not shown) | inhibition at 10 µM | 11.3 |
